Reference for the values: PubChem BioAssay (NCI)

The following molecules are listed with their measured TGI values.
test system: HCC-2998 colon; assay: NCI tumour cell line growth inhibition, 48 h

Example entries begin here.
[
  {
    "molecule": "CC1(Br)CC2OC3(Br)C=CC(C)(O)C2(CC1=O)C3(C)C (stereo unspecified)",
    "TGI": "> 100 µM"
  },
  {
    "molecule": "COc1cc2c(cc1OCCCOS(C)(=O)=O)N=C[C@@H]1CCCN1C2=O",
    "TGI": "> 100 µM"
  },
  {
    "molecule": "C=C1CCCC(C)(C)C1CCC1(C)CCC(C(C)C(=O)OC)OO1 (stereo unspecified)",
    "TGI": "11.5 µM"
  },
  {
    "molecule": "OCCCNc1ncnc2[nH]ncc12",
    "TGI": "> 100 µM"
  },
  {
    "molecule": "CC/C(=C(/c1ccc(O)cc1)c1ccc(OCCN)cc1)c1ccccc1",
    "TGI": "3.72 µM"
  },
  {
    "molecule": "CCCCC(C(=O)CCC(=O)Nc1ccc(Cl)c(Cl)c1)C(=O)C(C)C (stereo unspecified)",
    "TGI": "> 100 µM"
  }
]

Please report the recorded TGI for `COc1cccc(/C=N/NC(=O)c2ccccc2N2CCCC2)c1O` .
> 100 µM

Please report the recorded TGI for `COc1cc2oc(-c3ccc4c(c3)OCO4)c(OC)c(=O)c2c(OC)c1O` .
> 100 µM

Please report the recorded TGI for `[Cl][Hg][c]1ccc(Cl)s1` .
26.4 µM

Please report the recorded TGI for CCN1C(=O)N(CC)C2C1NN=c1s/c(=C\c3ccco3)c(=O)n12 (stereo unspecified) .
> 100 µM

Please report the recorded TGI for `Cc1ccc(N=NC(=Nc2ccc(Cl)cc2)c2ccc(N(CCC#N)CCC#N)cc2)cc1` .
90.1 µM

###

system: RPMI-8226 leukemia; experiment: NCI tumour cell line growth inhibition, 48 h
endpoint-name: GI50

Example entries begin here.
[
  {
    "compound": "COc1ccc2c(O)c(/C=C3\\N=Nc4ccccc43)oc2c1C[C@@H]1CCNC[C@H]1F",
    "GI50": "7050 nM"
  },
  {
    "compound": "COc1ccc2c(c1)oc(=O)c1cc(OC)ccc12",
    "GI50": "> 100000 nM"
  },
  {
    "compound": "CCCCCCCCCCCCSC1=C(Cl)C(=O)C(OC)=C(OC)C1=O",
    "GI50": "239 nM"
  },
  {
    "compound": "N/C(=N/N=C/c1ccccc1)N/N=C\\c1ccccc1",
    "GI50": "5210 nM"
  },
  {
    "compound": "COc1ccc2c(c1)[nH]c(=O)c1c3ccccc3cn21",
    "GI50": "36.6 nM"
  }
]

Lab note: next compound to report on.
GET /values?readout=GI50&system=RPMI-8226 leukemia&item= CCN1C(=O)N(CC)C2C1NN=c1s/c(=C\c3ccco3)c(=O)n12 (stereo unspecified)
438 nM

###

The following compounds are listed with their measured TGI values.
test system: SK-MEL-28 melanoma; test: NCI tumour cell line growth inhibition, 48 h

Example entries begin here.
[
  {
    "compound": "CC/C(=C(/c1ccc(O)cc1)c1ccc(OCCN)cc1)c1ccccc1",
    "assayed-target": "SK-MEL-28 melanoma",
    "TGI": "3.38 µM"
  },
  {
    "compound": "CCC(O)C1Cc2c(C)cc3c(c2O1)C(=O)c1ccccc1C3=O (stereo not given)",
    "assayed-target": "SK-MEL-28 melanoma",
    "TGI": "> 100 µM"
  },
  {
    "compound": "N#CCCN(CCC#N)c1ccc(/C=C(\\NC(=O)c2cc([N+](=O)[O-])ccc2Cl)C(=O)Nc2ccccc2)cc1",
    "assayed-target": "SK-MEL-28 melanoma",
    "TGI": "> 100 µM"
  },
  {
    "compound": "COc1cccc(/C=N/NC(=O)c2ccccc2N2CCCC2)c1O",
    "assayed-target": "SK-MEL-28 melanoma",
    "TGI": "> 100 µM"
  }
]

Lab note: next compound to report on.
Please report the recorded TGI for C#C/C=C\CCCCCCCCCCCCCC/C=C\CCCCC#CC(O)C#CCCCC/C=C\CCCCCC/C=C/C(O)C#C (stereo not given) .
> 72 µM
